Molecular target: Calcium-activated potassium channel subunit alpha-1 (Homo sapiens) + Leucine-rich repeat-containing protein 26 (Homo sapiens) (UniProt Q12791+Q2I0M4)
Sequence (Q2I0M4 whole entry, looked up, one chain of several): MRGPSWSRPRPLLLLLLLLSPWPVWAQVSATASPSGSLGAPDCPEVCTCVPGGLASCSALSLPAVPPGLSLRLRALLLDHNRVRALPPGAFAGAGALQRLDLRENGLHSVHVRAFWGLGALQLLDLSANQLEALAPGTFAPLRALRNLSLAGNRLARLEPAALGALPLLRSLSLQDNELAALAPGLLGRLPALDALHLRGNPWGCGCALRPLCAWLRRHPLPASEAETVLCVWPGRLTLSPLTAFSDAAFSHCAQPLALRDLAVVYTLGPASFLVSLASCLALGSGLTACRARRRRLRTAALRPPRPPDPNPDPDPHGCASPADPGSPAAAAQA
Experiment: modulators of BK channel variants, profiling panel, selectivity assay, cell-based, U2OS BacMam, thallium flux, beta subunits (AID 1259406);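 note: initial slope of Thallos dye fluorescence rise after thallium is added; log ratio against the mean of 0.3% DMSO vehicle wells on the same plate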
Conditions: F380Y/Slo1WT/gamma1, at 30 µM
The source made the active and inactive calls.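 Rule for the calls: active = thallium flux through the channel raised or lowered by more than 3 SD from vehicle-only wells, actives on both sides; inactive = the rest.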
Allowed answers: label 1 for active, label 0 for inactive

Look over these answered cases.
{"compound": "CC1(C)O[C@@H]2C[C@H]3[C@@H]4CCC5=CC(=O)C=C[C@]5(C)[C@@]4(F)[C@@H](O)C[C@]3(C)[C@]2(C(=O)CO)O1", "cat": "label 1"}
{"compound": "OC(Cn1cncn1)(Cn1cncn1)c1ccc(F)cc1F", "cat": "label 0"}
{"compound": "Cc1onc(-c2c(Cl)cccc2Cl)c1C(=O)N[C@@H]1C(=O)N2[C@@H]1SC(C)(C)[C@@H]2C(=O)O", "cat": "label 0"}
{"compound": "CN(C)C(=O)Oc1ccc[n+](C)c1", "cat": "label 0"}
{"compound": "O=c1[nH]cnc2[nH]ncc12", "cat": "label 0"}

What classification did CC(=O)S[C@@H]1CC2=CC(=O)CC[C@]2(C)[C@H]2CC[C@@]3(C)[C@@H](CC[C@@]34CCC(=O)O4)[C@H]12 end up with in this test?
label 0

What classification did Cc1cccc(Nc2ccccc2C(=O)O)c1C end up with in this test?
label 1

What classification did CC(=O)OCC(=O)[C@@]1(O)CC[C@H]2[C@@H]3CCC4=CC(=O)CC[C@]4(C)[C@H]3C(=O)C[C@@]21C end up with in this test?
label 0

What classification did CC1=C(CC(=O)O)c2cc(F)ccc2/C1=C\c1ccc(S(C)=O)cc1 (centres undefined) end up with in this test?
label 0
